Origin of the recorded values: patent US6365572B1

# TESTED_TARGET: laminin/nidogen interaction (laminin P1, recombinantly produced human nidogen) (Homo sapiens)
# Construct: made in house; host or cells: HEK-293
# PROTOCOL_NOTES: HTS screening assay (time-resolved fluorescence), inhibition of laminin/nidogen binding
# SETUP_CONDITIONS: hit structures recovered from the pentamer library screening; read-out: IC50
pIC50: −log10 of the molar value. Non-standard residues stand in square brackets, D forms with d. Residues, ends and D or L forms follow the SMILES beside them. *: point of attachment. 2Nal = N[C@@H](Cc1ccc2ccccc2c1)C(=O)O; NH(3-hydroxypropyl) = OCCCN*
ASSAY_ENDPOINT: pIC50

{"columns": ["COMPOUND", "pIC50"],
 "data": [
  ["CC[C@H](C)[C@H](NC(=O)[C@H](CC(=O)O)NC(=O)[C@H](CC(N)=O)NC(=O)[C@H](Cc1ccc2ccccc2c1)NC(=O)[C@@H](N)CC(=O)O)C(=O)NCC(=O)NCCCO [Compound 6] (H-D[2Nal]NDIG-{NH(3-hydroxypropyl)})", 6.19]
]}

P = CC[C@H](C)[C@H](NC(=O)[C@H](CO)NC(=O)[C@H](CC(N)=O)NC(=O)[C@H](Cc1ccc2ccccc2c1)NC(=O)[C@@H](N)CC(=O)O)C(=O)NCC(=O)NCCCO [Compound 7] (H-D[2Nal]NSIG-{NH(3-hydroxypropyl)})
Q = CC(C)[C@H](NC(=O)[C@H](C)NC(=O)[C@H](CC(N)=O)NC(=O)[C@H](Cc1ccc2ccccc2c1)NC(=O)[C@@H](N)CC(=O)O)C(=O)NCC(=O)NCCCO [Compound 5] (H-D[2Nal]NAVG-{NH(3-hydroxypropyl)})
Prompt: // compare measured pIC50 between P and Q ; output the lower one Which one? Tell me its label.
Response: P

* * *

# TESTED_TARGET: laminin/nidogen interaction (laminin P1, recombinantly produced human nidogen) (Homo sapiens)
# Construct: made in house; host or cells: HEK-293
# PROTOCOL_NOTES: HTS screening assay (time-resolved fluorescence), inhibition of laminin/nidogen binding
# SETUP_CONDITIONS: results table 1.3, synthesized compounds 1 to 43; read-out: IC50
pIC50: −log10 of the molar value. Starred links: 1 amine or outer side, 2 acyl side, 3 side chain; linkers in the order of their positions; H or OH if unused. Non-standard residues stand in square brackets, D forms with d. Residues, ends and D or L forms follow the SMILES beside them. *: point of attachment. 2Nal = N[C@@H](Cc1ccc2ccccc2c1)C(=O)O; Glutaryl = O=C(CCCC(=O)[*:2])[*:1]; NH(3-hydroxypropyl) = OCCCN*; Suc = O=C(CCC(=O)[*:2])[*:1]; X1 = CC(=O)c1ccccc1C(=O)*
ASSAY_ENDPOINT: pIC50

// worked examples, pIC50 included
{"columns": ["COMPOUND", "pIC50"],
 "data": [
  ["CC(C)[C@H](NC(=O)[C@H](C)NC(=O)[C@H](CC(N)=O)NC(=O)[C@H](Cc1ccc2ccccc2c1)NC(=O)CCC(=O)O)C(=O)NCC(=O)NCCCO [Compound 30] (Suc-[2Nal]NAVG-{NH(3-hydroxypropyl)})", 6.60],
  ["CC(C)[C@H](NC(=O)[C@H](C)NC(=O)[C@H](CC(N)=O)NC(=O)[C@H](Cc1ccc2ccccc2c1)NC(=O)CCC(=O)O)C(=O)O [Compound 37] (Suc-[2Nal]NAV-OH)", 6.08],
  ["CC(C)[C@H](NC(=O)[C@H](C)NC(=O)[C@H](CC(N)=O)NC(=O)C1[C@@H](c2ccc3ccccc3c2)CCN1C(=O)CCC(=O)O)C(N)=O (stereo in doubt)", 7.57]
]}

a = CC[C@H](C)[C@H](NC(=O)[C@H](CC(=O)O)NC(=O)[C@H](CC(N)=O)NC(=O)[C@H](Cc1ccc2ccccc2c1)NC(=O)[C@@H](N)CC(=O)O)C(=O)NCC(=O)NCCCO [Compound 6] (H-D[2Nal]NDIG-{NH(3-hydroxypropyl)})
b = CC(C)[C@H](NC(=O)[C@H](C)NC(=O)[C@H](CC(N)=O)NC(=O)[C@H](Cc1ccc2ccccc2c1)NC(=O)[C@@H](N)CC(=O)O)C(=O)NCC(=O)NCCCO [Compound 5] (H-D[2Nal]NAVG-{NH(3-hydroxypropyl)})
Prompt: // compare measured pIC50 between a and b ; output the lower one Which one? Tell me its label.
Response: a
(a: 5.86, b: 6.12)

P = CC(=O)c1ccccc1C(=O)N[C@@H](Cc1ccc2ccccc2c1)C(=O)N[C@@H](CC(N)=O)C(=O)N[C@@H](CO)C(=O)N[C@H](C(=O)NCC(=O)NCCCO)C(C)C [Compound 23] (X1-[2Nal]NSVG-{NH(3-hydroxypropyl)})
Q = CC(C)[C@H](NC(=O)[C@H](C)NC(=O)[C@H](CC(N)=O)NC(=O)[C@H](Cc1ccc2ccccc2c1)NC(=O)CCC(=O)O)C(=O)N(C)C [Compound 42] (Suc-[2Nal]NAV-NMe2)
R = CC(C)[C@H](NC(=O)[C@H](CO)NC(=O)[C@H](CC(N)=O)NC(=O)[C@H](Cc1ccc2ccccc2c1)NC(=O)CCCC(=O)O)C(=O)NCC(=O)NCCCO [Compound 26] (Glutaryl-[2Nal]NSVG-{NH(3-hydroxypropyl)})
Prompt: Sort these compounds on pIC50 so the largest reading comes first. # list labels per requested ordering
Response: Q, R, P
(Q: 6.62, R: 6.35, P: 5.83)

* * *

# TESTED_TARGET: laminin/nidogen interaction (laminin P1, recombinantly produced human nidogen) (Homo sapiens, UniProt P14543)
# Construct: made in house; host or cells: HEK-293
# Sequence (P14543 29-1247): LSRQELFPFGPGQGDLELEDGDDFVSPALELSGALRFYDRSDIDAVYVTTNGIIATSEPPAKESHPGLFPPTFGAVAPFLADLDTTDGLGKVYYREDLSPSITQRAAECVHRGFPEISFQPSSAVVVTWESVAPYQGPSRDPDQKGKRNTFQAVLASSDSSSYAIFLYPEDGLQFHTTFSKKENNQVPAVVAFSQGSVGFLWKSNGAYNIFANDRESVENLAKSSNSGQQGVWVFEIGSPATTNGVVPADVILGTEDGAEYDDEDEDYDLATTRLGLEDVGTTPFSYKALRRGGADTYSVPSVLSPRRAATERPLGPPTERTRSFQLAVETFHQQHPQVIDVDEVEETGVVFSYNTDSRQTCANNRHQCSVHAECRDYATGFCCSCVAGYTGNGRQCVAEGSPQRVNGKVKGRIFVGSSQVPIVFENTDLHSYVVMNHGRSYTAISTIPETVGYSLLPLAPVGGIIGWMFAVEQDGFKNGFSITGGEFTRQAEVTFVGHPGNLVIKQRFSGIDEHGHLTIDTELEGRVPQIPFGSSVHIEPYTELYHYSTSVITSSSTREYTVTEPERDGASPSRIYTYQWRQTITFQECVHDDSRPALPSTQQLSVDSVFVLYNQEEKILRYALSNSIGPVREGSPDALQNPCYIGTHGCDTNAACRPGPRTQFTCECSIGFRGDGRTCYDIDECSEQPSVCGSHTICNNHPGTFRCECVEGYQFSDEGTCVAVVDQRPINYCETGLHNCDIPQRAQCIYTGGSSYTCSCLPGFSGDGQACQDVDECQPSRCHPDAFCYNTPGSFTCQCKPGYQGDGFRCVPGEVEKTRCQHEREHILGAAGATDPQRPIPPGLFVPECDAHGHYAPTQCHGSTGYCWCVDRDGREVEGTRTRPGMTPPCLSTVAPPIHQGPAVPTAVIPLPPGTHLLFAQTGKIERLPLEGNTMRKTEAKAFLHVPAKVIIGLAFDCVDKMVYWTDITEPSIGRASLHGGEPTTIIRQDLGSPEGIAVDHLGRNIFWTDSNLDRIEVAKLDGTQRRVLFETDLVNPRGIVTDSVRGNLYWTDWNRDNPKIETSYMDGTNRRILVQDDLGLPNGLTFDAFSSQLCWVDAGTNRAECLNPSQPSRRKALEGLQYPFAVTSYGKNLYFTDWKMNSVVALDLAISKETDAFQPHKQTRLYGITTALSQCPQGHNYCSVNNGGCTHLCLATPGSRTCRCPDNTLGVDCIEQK
# PROTOCOL_NOTES: HTS screening assay (time-resolved fluorescence), inhibition of laminin/nidogen binding
# SETUP_CONDITIONS: results table 1.3, synthesized compounds 1 to 43; read-out: IC50
pIC50: −log10 of the molar value. Starred links: 1 amine or outer side, 2 acyl side, 3 side chain; linkers in the order of their positions; H or OH if unused. Non-standard residues stand in square brackets, D forms with d. Residues, ends and D or L forms follow the SMILES beside them. *: point of attachment. 2Nal = N[C@@H](Cc1ccc2ccccc2c1)C(=O)O; βAsp = O=C(O)[C@H](CC(=O)[*:2])N[*:1]; Bta = N[C@@H](Cc1csc2ccccc12)C(=O)O; NH(3-hydroxypropyl) = OCCCN*
ASSAY_ENDPOINT: pIC50

a = CC(C)[C@H](NC(=O)[C@H](CO)NC(=O)[C@H](CC(N)=O)NC(=O)[C@H](Cc1ccc2ccccc2c1)NC(=O)C[C@H](N)C(=O)O)C(=O)NCC(=O)NCCCO [Compound 25] (βAsp-[2Nal]NSVG-{NH(3-hydroxypropyl)})
b = CC(C)[C@H](NC(=O)[C@H](C)NC(=O)[C@H](CC(N)=O)NC(=O)[C@H](Cc1csc2ccccc12)NC(=O)[C@@H](N)CC(=O)O)C(=O)NCC(=O)NCCCO [Compound 13] (H-D[Bta]NAVG-{NH(3-hydroxypropyl)})
Prompt: Which numeric pIC50 is bigger, that of a or that of b ? Which one? Tell me its label.
Response: a
(a: 6.64, b: 5.15)

* * *

# TESTED_TARGET: laminin/nidogen interaction (laminin P1, recombinantly produced human nidogen) (Homo sapiens)
# Construct: made in house; host or cells: HEK-293
# PROTOCOL_NOTES: HTS screening assay (time-resolved fluorescence), inhibition of laminin/nidogen binding
# SETUP_CONDITIONS: results table 1.3, synthesized compounds 1 to 43; read-out: IC50
pIC50: −log10 of the molar value. Starred links: 1 amine or outer side, 2 acyl side, 3 side chain; linkers in the order of their positions; H or OH if unused. Non-standard residues stand in square brackets, D forms with d. Residues, ends and D or L forms follow the SMILES beside them. *: point of attachment. Pro(3R-Ph) = O=C(O)[C@H]1NCC[C@@H]1c1ccccc1; Dip = N[C@H](C(=O)O)C(c1ccccc1)c1ccccc1; 1Nal = N[C@@H](Cc1cccc2ccccc12)C(=O)O; 2Nal = N[C@@H](Cc1ccc2ccccc2c1)C(=O)O; NH(3-hydroxypropyl) = OCCCN*; Suc = O=C(CCC(=O)[*:2])[*:1]; Bn = c1ccc(C*)cc1
ASSAY_ENDPOINT: pIC50

// worked examples, pIC50 included
{"columns": ["MOLECULE", "ASSAY_ENDPOINT", "NUMERIC_VALUE"],
 "data": [
  ["CC(C)[C@H](NC(=O)[C@H](CO)NC(=O)[C@H](CC(N)=O)NC(=O)[C@H](Cc1ccc2ccccc2c1)NC(=O)[C@@H](N)CC(=O)O)C(=O)NCC(=O)NCCCO [Compound 4] (H-D[2Nal]NSVG-{NH(3-hydroxypropyl)})", "pIC50", 6.42],
  ["CC[C@H](C)[C@H](NC(=O)[C@H](CO)NC(=O)[C@H](CC(N)=O)NC(=O)[C@H](Cc1ccc2ccccc2c1)NC(=O)[C@@H](N)CC(=O)O)C(=O)NCC(=O)NCCCO [Compound 7] (H-D[2Nal]NSIG-{NH(3-hydroxypropyl)})", "pIC50", 6.22],
  ["CC(C)[C@H](NC(=O)[C@H](C)NC(=O)[C@H](CC(N)=O)NC(=O)[C@@H]1CCCN1C(=O)[C@@H](N)CC(=O)O)C(=O)NCC(=O)NCCCO [Compound 2, reference compound] (H-DPNAVG-{NH(3-hydroxypropyl)})", "pIC50", 5.11]
]}

A = CC(C)[C@H](NC(=O)[C@H](CO)NC(=O)[C@H](CC(N)=O)NC(=O)[C@@H]1[C@@H](c2ccccc2)CCN1C(=O)[C@@H](N)CC(=O)O)C(=O)NCC(=O)NCCCO [Compound 17] (H-D[Pro(3R-Ph)]NSVG-{NH(3-hydroxypropyl)})
B = CC(C)[C@H](NC(=O)[C@H](C)NC(=O)[C@H](CC(N)=O)NC(=O)[C@H](Cc1ccc(OCc2ccccc2)cc1)NC(=O)CCC(=O)O)C(N)=O [Compound 35] (Suc-Y(Bn)NAV-NH2)
C = CC(C)[C@H](NC(=O)[C@H](C)NC(=O)[C@H](CC(N)=O)NC(=O)[C@@H](NC(=O)[C@@H](N)CC(=O)O)C(c1ccccc1)c1ccccc1)C(=O)NCC(=O)NCCCO [Compound 15] (H-D[Dip]NAVG-{NH(3-hydroxypropyl)})
D = CC(C)[C@H](NC(=O)[C@H](CO)NC(=O)[C@H](CC(N)=O)NC(=O)[C@H](Cc1ccc2ccccc2c1)NC(=O)CCC(=O)O)C(=O)NCC(=O)NCCCO [Compound 24] (Suc-[2Nal]NSVG-{NH(3-hydroxypropyl)})
E = CC(C)[C@H](NC(=O)[C@H](C)NC(=O)[C@H](CC(N)=O)NC(=O)[C@H](Cc1cccc2ccccc12)NC(=O)[C@@H](N)CC(=O)O)C(=O)NCC(=O)NCCCO [Compound 9] (H-D[1Nal]NAVG-{NH(3-hydroxypropyl)})
Prompt: Sort these molecules on pIC50 so the largest reading comes first. # list labels per requested ordering
Response: D, A, B, E, C
(D: 6.41, A: 5.64, B: 5.30, E: 5.08, C: 4.58)
